Where do these numbers come from? They come from patent US12012411B2.

Assignment: determine reported CC50 at 4 days for the given compounds.
test: in vitro; conditions: African green monkey, uninfected quiescent Vero-B cells
Hi, when you answer, please include the unit after the number. Thanks!

Lookup: I have this compound here, COc1cccc(NC(C(=O)c2c[nH]c3cc(C)ccc23)c2ccccc2)c1 (stereo not shown) [CPD-122] , and I need its recorded CC50 at 4 days.
Found: 16 µM

Lookup: I have this compound here, COc1cc(NC(C(=O)c2c[nH]c3ccccc23)c2ccc(C#N)cc2)ccn1 (stereo not shown) [CPD-061] , and I need its recorded CC50 at 4 days.
Found: 59 µM

Lookup: I have this compound here, COc1cncc(NC(C(=O)c2c[nH]c3ccc(F)cc23)c2ccc(OC)nc2)c1 (single isomer, unassigned) [CPD-322] , and I need its recorded CC50 at 4 days.
Found: 51 µM

Lookup: I have this compound here, COc1cncc(NC(C(=O)c2c[nH]c3ccc(F)cc23)c2ccc(OC)nc2)c1 (stereo not shown) [CPD-241] , and I need its recorded CC50 at 4 days.
Found: 58 µM

====

system: uninfected quiescent Vero-B cells; assay: Cytotoxic assay in uninfected quiescent Vero-B cells (MTS/PMS); conditions: 4 days (Table 3)
readout: CC50 (µM)
The answer is to be given in µM; state only the numeric part.

Lookup: I have this compound here, COc1cccc(NC(C(=O)c2c[nH]c3ccccc23)c2ccccc2C)c1 (centres unmarked) [CPD-348] , and I need its recorded CC50.
Found: 14

Lookup: I have this compound here, COc1ccc(NC(C(=O)c2c[nH]c3ccccc23)c2ccccc2)cc1OC (centres unmarked) [CPD-001] , and I need its recorded CC50.
Found: 29

Lookup: I have this compound here, COc1cccc(NC(C(=O)c2c[nH]c3ccccc23)c2cccnc2)c1 (centres unmarked) [CPD-019] , and I need its recorded CC50.
Found: 71

Lookup: I have this compound here, COc1cncc(NC(C(=O)c2c[nH]c3ccccc23)c2ccccc2)n1 (centres unmarked) [CPD-252] , and I need its recorded CC50.
Found: 68

Lookup: I have this compound here, COc1cccc(NC(C(=O)c2c[nH]c3ccccc23)c2ccccc2)n1 (centres unmarked) [CPD-277] , and I need its recorded CC50.
Found: 16

Lookup: I have this compound here, COc1cncc(NC(C(=O)c2c[nH]c3ccccc23)c2ccccc2)c1 (single isomer, unassigned) [CPD-300] , and I need its recorded CC50.
Found: 50

Lookup: I have this compound here, COc1cccc(NC(C(=O)c2c[nH]c3cccc(Cl)c23)c2ccccc2)c1 (centres unmarked) [CPD-053] , and I need its recorded CC50.
Found: 18

Lookup: I have this compound here, COc1cc(NC(C(=O)c2c[nH]c3ccc(CCCO)cc23)c2ccccc2)cc(OC)c1 (centres unmarked) [CPD-353] , and I need its recorded CC50.
Found: 56

Lookup: I have this compound here, COc1cc(NC(C(=O)c2c[nH]c3ccccc23)c2ccccc2)cc(OC)c1 (single isomer, unassigned) [CPD-327] , and I need its recorded CC50.
Found: 11

Lookup: I have this compound here, COc1cc(NC(C(=O)c2c[nH]c3ccccc23)c2ccccc2)cc(OC)c1 (single isomer, unassigned) [CPD-326] , and I need its recorded CC50.
Found: 13

Lookup: I have this compound here, COc1cccc(NC(C(=O)c2c[nH]c3cc(Cl)ccc23)c2ccccc2)c1 (centres unmarked) [CPD-118] , and I need its recorded CC50.
Found: 13

Lookup: I have this compound here, O=C(c1c[nH]c2ccccc12)C(NC1CCCC1)c1ccccc1 (centres unmarked) [CPD-183] , and I need its recorded CC50.
Found: 86

Lookup: I have this compound here, COc1cccc(NC(C(=O)c2c[nH]c3ccccc23)c2ccsc2)c1 (centres unmarked) [CPD-027] , and I need its recorded CC50.
Found: 15

Lookup: I have this compound here, O=C(c1c[nH]c2ccccc12)C(Nc1ccc2[nH]c(=O)oc2c1)c1ccccc1 (centres unmarked) [CPD-057] , and I need its recorded CC50.
Found: 15

Lookup: I have this compound here, O=C(c1c[nH]c2ccccc12)C(Nc1cc(F)cc(F)c1)c1ccccc1 (centres unmarked) [CPD-011] , and I need its recorded CC50.
Found: 23

Lookup: I have this compound here, O=C(c1c[nH]c2ccccc12)C(Nc1cccc(F)c1)c1ccccc1 (centres unmarked) [CPD-008] , and I need its recorded CC50.
Found: 12

Lookup: I have this compound here, COc1cccc(NC(C(=O)c2c[nH]c3ccccc23)c2cc3ccccn3n2)c1 (single isomer, unassigned) [CPD-324] , and I need its recorded CC50.
Found: 30

Lookup: I have this compound here, COc1cc(NC(C(=O)c2c[nH]c3ccccc23)c2ccc(F)cc2)cc(OC)c1 (centres unmarked) [CPD-235] , and I need its recorded CC50.
Found: 13

Lookup: I have this compound here, COc1cccc(NC(C(=O)c2c[nH]c3ccccc23)c2ccc(C)nc2)c1 (centres unmarked) [CPD-226] , and I need its recorded CC50.
Found: 73

Lookup: I have this compound here, O=C(c1c[nH]c2ccccc12)C(Nc1cccnc1)c1ccccc1 (centres unmarked) [CPD-016] , and I need its recorded CC50.
Found: 54

Lookup: I have this compound here, COc1cccc(NC(C(=O)c2c[nH]c3cc(OC)ccc23)c2ccccc2)c1 (centres unmarked) [CPD-077] , and I need its recorded CC50.
Found: 13

Lookup: I have this compound here, COc1cccc(NC(C(=O)c2c[nH]c3cccc(F)c23)c2ccccc2)c1 (centres unmarked) [CPD-230] , and I need its recorded CC50.
Found: 21

Lookup: I have this compound here, COc1cc(NC(C(=O)c2c[nH]c3cccc(CCCO)c23)c2ccccc2)cc(OC)c1 (centres unmarked) [CPD-357] , and I need its recorded CC50.
Found: 55

Lookup: I have this compound here, COc1cccc(NC(C(=O)c2c[nH]c3ccccc23)c2ccc(C)cc2)c1 (centres unmarked) [CPD-139] , and I need its recorded CC50.
Found: 20

Lookup: I have this compound here, COc1ccnc(NC(C(=O)c2c[nH]c3ccccc23)c2ccccc2)c1 (centres unmarked) [CPD-066] , and I need its recorded CC50.
Found: 95

Lookup: I have this compound here, COc1cc(NC(C(=O)c2c[nH]c3cccc(CO)c23)c2ccccc2)cc(OC)c1 (centres unmarked) [CPD-352] , and I need its recorded CC50.
Found: 71

Lookup: I have this compound here, COc1cc(NC(C(=O)c2c[nH]c3ccc(F)cc23)c2ccccc2)cc(OC)c1 (centres unmarked) [CPD-131] , and I need its recorded CC50.
Found: 13

Lookup: I have this compound here, COc1cncc(NC(C(=O)c2c[nH]c3ccc(F)cc23)c2ccc(OC)nc2)c1 (single isomer, unassigned) [CPD-323] , and I need its recorded CC50.
Found: 58

Lookup: I have this compound here, COc1cccc(NC(C(=O)c2c[nH]c3ccccc23)c2ccc(C#N)cc2)c1 (centres unmarked) [CPD-036] , and I need its recorded CC50.
Found: 14

Lookup: I have this compound here, CS(=O)(=O)c1cccc(NC(C(=O)c2c[nH]c3ccccc23)c2ccccc2)c1 (centres unmarked) [CPD-044] , and I need its recorded CC50.
Found: 65

Lookup: I have this compound here, COc1cc(NC(C(=O)c2c[nH]c3ccccc23)c2ccccc2)cc(OC)c1 (centres unmarked) [CPD-002] , and I need its recorded CC50.
Found: 16

Lookup: I have this compound here, COc1cc(NC(C(=O)c2c[nH]c3ccc(CO)cc23)c2ccccc2)cc(OC)c1 (centres unmarked) [CPD-351] , and I need its recorded CC50.
Found: 65

Lookup: I have this compound here, COc1cc(CO)cc(NC(C(=O)c2c[nH]c3ccccc23)c2ccccc2)c1 (centres unmarked) [CPD-262] , and I need its recorded CC50.
Found: 71

Lookup: I have this compound here, COc1cccc(NC(C(=O)c2c[nH]c3ccccc23)c2cccc(C)c2)c1 (centres unmarked) [CPD-138] , and I need its recorded CC50.
Found: 20
